# targetSystem: Beta-secretase 1 (Homo sapiens)
# assayExplanation: Binding affinity to BACE assessed as displacement of [3H]BMS-599240
# measurementSetup: read-out: IC50
pIC50: −log10 of the molar value.
Here the recorded pIC50 is given for each entry.

>  <compound>
COc1cccc(CNC[C@@H](O)[C@H](Cc2cc(F)cc(F)c2)NC(=O)c2cc(/C(C)=N\OCc3ccccc3)cc(N3CCCCS3(=O)=O)c2)c1

>  <pIC50>
7.51

$$$$
>  <compound>
COc1cccc(CNC[C@@H](O)[C@H](Cc2cc(F)cc(F)c2)NC(=O)c2cc(/C(C)=N/OCC(C)C)cc(N(c3ccccc3)S(C)(=O)=O)c2)c1

>  <pIC50>
6.62

$$$$
>  <compound>
COc1cccc(CNC[C@@H](O)[C@H](Cc2cc(F)cc(F)c2)NC(=O)c2cccc(C(=O)NC(C)c3ccc(F)cc3)c2)c1 (stereo partly drawn)

>  <pIC50>
6.78

$$$$

====

# targetSystem: Beta-secretase 1 (Homo sapiens, UniProt P56817)
# Sequence (P56817 whole entry): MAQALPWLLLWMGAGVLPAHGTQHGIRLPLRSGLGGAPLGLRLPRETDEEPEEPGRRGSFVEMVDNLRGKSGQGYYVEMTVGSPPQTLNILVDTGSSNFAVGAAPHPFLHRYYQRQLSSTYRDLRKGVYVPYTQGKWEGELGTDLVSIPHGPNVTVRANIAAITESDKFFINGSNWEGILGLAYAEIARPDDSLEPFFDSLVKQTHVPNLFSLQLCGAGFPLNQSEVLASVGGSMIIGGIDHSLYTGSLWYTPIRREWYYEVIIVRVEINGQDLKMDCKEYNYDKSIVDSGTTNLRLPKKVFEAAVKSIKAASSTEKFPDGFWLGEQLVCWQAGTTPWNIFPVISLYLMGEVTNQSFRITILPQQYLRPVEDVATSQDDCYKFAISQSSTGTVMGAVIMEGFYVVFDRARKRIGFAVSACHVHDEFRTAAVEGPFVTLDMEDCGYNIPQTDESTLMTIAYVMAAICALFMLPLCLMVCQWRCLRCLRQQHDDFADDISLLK
# assayExplanation: Binding affinity to BACE assessed as displacement of [3H]BMS-599240
# measurementSetup: read-out: IC50
pIC50: −log10 of the molar value.
Listed here are compounds together with their documented pIC50.
reportedEndpoint: pIC50

>  <compound>
CCCN(CCC)C(=O)c1cc(Oc2ccc(F)cc2)cc(C(=O)N[C@@H](Cc2cc(F)cc(F)c2)[C@H](O)CNCc2cccc(OC)c2)c1

>  <targetSystem>
Beta-secretase 1 (Homo sapiens, UniProt P56817)

>  <reportedMeasurement>
7.66

$$$$
>  <compound>
COc1cccc(CNC[C@@H](O)[C@H](Cc2cc(F)cc(F)c2)NC(=O)c2cccc(N(c3ccccc3)S(C)(=O)=O)c2)c1

>  <targetSystem>
Beta-secretase 1 (Homo sapiens, UniProt P56817)

>  <reportedMeasurement>
7.96

$$$$
>  <compound>
C=CCO/N=C(/C)c1cc(C(=O)N[C@@H](Cc2cc(F)cc(F)c2)[C@H](O)CNCc2cccc(OC)c2)cc(N2CCCCS2(=O)=O)c1

>  <targetSystem>
Beta-secretase 1 (Homo sapiens, UniProt P56817)

>  <reportedMeasurement>
6.95

$$$$
>  <compound>
CCCO/N=C(/C)c1cc(C(=O)N[C@@H](Cc2cc(F)cc(F)c2)[C@H](O)CNCc2cccc(OC)c2)cc(N(C)S(C)(=O)=O)c1

>  <targetSystem>
Beta-secretase 1 (Homo sapiens, UniProt P56817)

>  <reportedMeasurement>
7.23

$$$$
>  <compound>
COc1cccc(CNC[C@@H](O)[C@H](Cc2cc(F)cc(F)c2)NC(=O)c2cc(C(C)=O)cc(N(C)S(C)(=O)=O)c2)c1

>  <targetSystem>
Beta-secretase 1 (Homo sapiens, UniProt P56817)

>  <reportedMeasurement>
6.91

$$$$
>  <compound>
CCCN(CCC)C(=O)c1cc(C(=O)N[C@@H](Cc2cc(F)cc(F)c2)[C@H](O)CNCc2cccc(OC)c2)cc(/C(C)=N\OCc2ccccc2)c1

>  <targetSystem>
Beta-secretase 1 (Homo sapiens, UniProt P56817)

>  <reportedMeasurement>
7.17

$$$$
>  <compound>
CCCN(CCC)C(=O)c1cc(C(=O)N[C@@H](Cc2cc(F)cc(F)c2)[C@H](O)CNCc2cccc(OC)c2)cc(C(C)NC(C)=O)c1 (some centres not stated)

>  <targetSystem>
Beta-secretase 1 (Homo sapiens, UniProt P56817)

>  <reportedMeasurement>
7.70

$$$$
